Every entry's value here was drawn from paper PMC6753678.

Test system: P. berghei ookinete development
Condition Parameters: primary screen at 1 μM, replicate A
Consider the following molecules; for each one, report its % inhibition, Replicate A.
Answers are plain numbers, in %.

{"Molecule": "COc1coc(C(=O)NC2CCN(CC3(c4ccc(Cl)cc4)CCC3)CC2)c1OC", "Quantity Unit": "%", "Measured": 73.94}
{"Molecule": "Cc1c(Cc2ccccc2Br)cnc2nc(N)nc(N)c12.Cl", "Quantity Unit": "%", "Measured": 44.00}

Okay, here is my list. What is % inhibition, Replicate A for each of these?
1. CN(Cc1cccc(F)c1)C1CCN(c2cc(NC(=O)c3ccc(F)cc3)ccn2)CC1.O=C(O)C(F)(F)F
2. Cc1cc(=O)[nH]c(-n2nc(C)cc2NC(=O)C2(c3ccc(Cl)cc3)CCCC2)n1

1: 54.82; 2: 55.02

Okay, here is my list. What is % inhibition, Replicate A for each of these?
1. CCCOc1cc(OCCC)cc(-c2cc(=O)c3ccccc3[nH]2)c1
2. Cc1[nH]c(C)c(-c2ccc(/C=C/c3ccccn3)cc2)c(=O)c1Cl
3. COc1ccc2nccc([C@@H](O)CN3CCC(NCCOc4ccc(F)cc4Cl)CC3)c2c1.O=C(O)C(=O)O
4. Cc1ccc(C2(CN3CCC(NC(=O)c4ccn[nH]4)CC3)CCCCC2)cc1
5. CCCCCCCc1c(C)[nH]c2ccccc2c1=O

1. 86.05
2. 50.60
3. 30.16
4. 81.24
5. 71.66

Okay, here is my list. What is % inhibition, Replicate A for each of these?
1. Cc1[nH]c(C)c(-c2ccc(C#Cc3ccc(F)cc3F)cc2)c(=O)c1Br
2. CC(C)N1CCN(CCCNc2c3ccccc3nc3ccccc23)CC1.Cl
3. CCOC(=O)C(=O)N1c2ccc(OCC)cc2-c2c(ssc2=S)C1(C)C

1. 89.67
2. 29.07
3. 23.50

Okay, here is my list. What is % inhibition, Replicate A for each of these?
1. c1ccc(CCNc2ncnc3c2[nH]c2ccccc23)cc1
2. COc1ccc2nc(-c3cc(-c4ccc(NC(C)=O)cc4)cnc3N)[nH]c2c1
3. Cc1[nH]c(C)c(-c2ccc(-c3ccccc3F)nc2)c(=O)c1Br
4. CC1CN(Cc2ccccc2)CCN1c1ccc(NC(=O)c2cccs2)cc1.O=C(O)C(F)(F)F (stereo not drawn)
5. CC(=O)Oc1c(Cl)c(C)nc(C)c1-c1ccc(Oc2ccc(Cl)cc2)cc1

1. 104.22
2. 88.78
3. 85.66
4. 105.18
5. 96.93

Okay, here is my list. What is % inhibition, Replicate A for each of these?
1. CCc1cc2c3c(N)nc(N)nc3ccc2n1CC
2. CNC(=O)c1ccccc1Nc1nc(Nc2ccc(N3CCOCC3)cc2)ncc1Cl.Cl
3. Cl.O=c1cc(NCCCNCc2sc(Br)c(Br)c2Br)[nH]c2ccccc12
4. O=c1nc(C=Cc2ccc(Br)cc2)oc2ccccc12
5. Cc1cc(O)c(-c2ccc(Oc3ccc(F)cc3)cc2)c(C)n1
6. CC(C)CN1CCN(c2nc(C#N)c3c(c2C(=S)NC2CCCCC2)CC(C)(C)OC3)CC1

1. 53.59
2. 67.63
3. 55.06
4. 55.97
5. 57.60
6. 37.56

Okay, here is my list. What is % inhibition, Replicate A for each of these?
1. N#Cc1ccc(Cn2ccc3c4c(N)nc(N)nc4ccc32)cc1
2. Cc1nc2nc(N)nc(N)c2c(C)c1Cc1ccccc1.Cl

1: 57.43; 2: 51.61

Okay, here is my list. What is % inhibition, Replicate A for each of these?
1. O=C(Nc1ccc(OC2CCN(Cc3ccc(F)cc3)CC2)c(Cl)c1)c1cccs1.O=C(O)C(F)(F)F
2. Oc1c(C(Nc2nc3ccccc3s2)c2ccccc2)ccc2cccnc12 (stereo not drawn)
3. Cc1nc(C)c(-c2ccc(Oc3ccc(Cl)c(Cl)c3)cc2)c(O)c1Br
4. CS(=O)(=O)Cc1ccc(Nc2ncc(Cl)c(Nc3cccnc3C(N)=O)n2)cc1.Cl
5. Cn1nc(C(F)(F)F)c(-c2ccc(Br)cc2)c1NC(=O)Cc1ccccc1F
6. OCCc1ccc(Nc2nccc(-c3nnc4ccccn34)n2)cc1
7. COc1cccc(CNCC(C)(C)c2nc(-c3ccc(Cl)c(O)c3)c(-c3ccncc3)[nH]2)c1.Cl

51.32
27.85
88.28
41.15
45.62
70.77
13.26

Hello, I am looking for reported % inhibition, Replicate A with P. berghei ookinete development for COc1cc(F)c2ncc(Cl)c(CCN3CCC(NCc4ccc5c(n4)NC(=O)CO5)CC3)c2c1.Cl . Could you help?
69.33
